Assay: Plasma stability of payloads (t½)
Where a SMILES comes first, the peptide text is derived from it. [ ]: non-standard residue; d: D form. The star is where a group is joined. Bip(2'-Et,4'-O(CH2)4NH2) = CCc1cc(OCCCCN)ccc1-c1ccc(C[C@H](N)C(=O)O)cc1; Nva(5-(3,5-Me2Ph)) = Cc1cc(C)cc(CCC[C@H](N)C(=O)O)c1; Ala(1H-tetrazol-5-yl) = N[C@@H](Cc1nnn[nH]1)C(=O)O; αMePhe(2-F) = C[C@](N)(Cc1ccccc1F)C(=O)O; X3 = CC(C)(C(=O)*)c1ccn[nH]1; X1 = O=C(CCCCCc1cnc[nH]1)*
property: Plasma stability t½

// field: Plasma stability t½; key: CCc1cc(OCCCCN)ccc1-c1ccc(C[C@H](NC(=O)[C@H](CC(=O)O)NC(=O)[C@H](CO)NC(=O)[C@@H](NC(=O)[C@](C)(Cc2ccccc2F)NC(=O)[C@@H](NC(=O)CNC(=O)[C@H](Cc2nn[nH]n2)NC(=O)CCCCCc2cnc[nH]2)[C@@H](C)O)[C@@H](C)O)C(=O)N[C@@H](CCCc2cc(C)cc(C)c2)C(N)=O)cc1 [P11] (X1-[Ala(1H-tetrazol-5-yl)]GT[αMePhe(2-F)]TSD[Bip(2'-Et,4'-O(CH2)4NH2)][Nva(5-(3,5-Me2Ph))]-NH2) ; value = >57.8 h

Moving on to another compound below.
Just so you know, measured Plasma stability t½ for CCc1cc(OCCCCN)ccc1-c1ccc(C[C@H](NC(=O)[C@H](CC(=O)O)NC(=O)[C@H](CO)NC(=O)[C@@H](NC(=O)[C@](C)(Cc2ccccc2F)NC(=O)[C@@H](NC(=O)CNC(=O)[C@H](Cc2nn[nH]n2)NC(=O)C(C)(C)c2ccn[nH]2)[C@@H](C)O)[C@@H](C)O)C(=O)N[C@@H](CCCc2cc(C)cc(C)c2)C(N)=O)cc1 [P6] (X3-[Ala(1H-tetrazol-5-yl)]GT[αMePhe(2-F)]TSD[Bip(2'-Et,4'-O(CH2)4NH2)][Nva(5-(3,5-Me2Ph))]-NH2) came out at >57.8 h

* * *

Test system: HEK293/CRE-Luc cells
Test: Luciferase reporter assay, HEK293/CRE-Luc cells without GLP1R (Example 17)
Assay type: cell-based, human
Conditions: HEK293/CRE-Luc cells without hGLP1R; payloads and linker-payloads
Text: To test the activity of GLP1R agonist payloads, GLP1R agonist linker-payloads (LPs), and anti-GLP1R antibody tethered drug conjugates (ATDCs) of the invention, a cell-based cAMP responsive luciferase reporter assay was developed. To generate the assay cell line, the firefly luciferase gene was placed under the control of a cAMP response element (CRE) located upstream of a minimal promoter and transfected into HEK293 cells and referred to herein as HEK293/CRE-Luc cells. […]
Where a SMILES comes first, the peptide text is derived from it. [ ]: non-standard residue; d: D form. The star is where a group is joined. Bip(2'-Et,4'-O(CH2)4NH2) = CCc1cc(OCCCCN)ccc1-c1ccc(C[C@H](N)C(=O)O)cc1; Nva(5-(3,5-Me2Ph)) = Cc1cc(C)cc(CCC[C@H](N)C(=O)O)c1; Ala(1H-tetrazol-5-yl) = N[C@@H](Cc1nnn[nH]1)C(=O)O; αMePhe(2-F) = C[C@](N)(Cc1ccccc1F)C(=O)O; Desaminohistidyl = O=C(CCc1c[nH]cn1)*; X6 = CC(C)(C(=O)NO)C(=O)*
Parameter S/N: see the listing below.

Please review the following examples before continuing.
Sample CCc1cc(OCCCCN)ccc1-c1ccc(C[C@H](NC(=O)[C@H](CC(=O)O)NC(=O)[C@H](CO)NC(=O)[C@@H](NC(=O)[C@](C)(Cc2ccccc2F)NC(=O)[C@@H](NC(=O)CNC(=O)[C@H](Cc2nn[nH]n2)NC(=O)[C@H](C)NC(=O)[C@@H](N)Cc2ccc(O)cc2)[C@@H](C)O)[C@@H](C)O)C(=O)N[C@@H](CCCc2cc(C)cc(C)c2)C(N)=O)cc1 [P18] , system: HEK293/CRE-Luc cells. Its S/N is 1.4

The recorded S/N with HEK293/CRE-Luc cells for CCc1cc(OCCCCN)ccc1-c1ccc(C[C@H](NC(=O)[C@H](CC(=O)O)NC(=O)[C@H](CO)NC(=O)[C@@H](NC(=O)[C@](C)(Cc2ccccc2F)NC(=O)[C@@H](NC(=O)CNC(=O)[C@H](Cc2nn[nH]n2)NC(=O)CNC(=O)CCc2cnc[nH]2)[C@@H](C)O)[C@@H](C)O)C(=O)N[C@@H](CCCc2cc(C)cc(C)c2)C(N)=O)cc1 [P12] (Desaminohistidyl-G[Ala(1H-tetrazol-5-yl)]GT[αMePhe(2-F)]TSD[Bip(2'-Et,4'-O(CH2)4NH2)][Nva(5-(3,5-Me2Ph))]-NH2) was 1.2

Record CCc1cc(OCCCCN)ccc1-c1ccc(C[C@H](NC(=O)[C@H](CC(=O)O)NC(=O)[C@H](CO)NC(=O)[C@@H](NC(=O)[C@](C)(Cc2ccccc2F)NC(=O)[C@@H](NC(=O)CNC(=O)[C@@H](N)CCC(N)=O)[C@@H](C)O)[C@@H](C)O)C(=O)N[C@@H](CCCc2cc(C)cc(C)c2)C(N)=O)cc1 [M2913] ; system HEK293/CRE-Luc cells; S/N = 1.1

HEK293/CRE-Luc cells data for CCc1cc(OCCCCN)ccc1-c1ccc(C[C@H](NC(=O)[C@H](CC(=O)O)NC(=O)[C@H](CO)NC(=O)[C@@H](NC(=O)[C@](C)(Cc2ccccc2F)NC(=O)[C@@H](NC(=O)CNC(=O)[C@H](Cc2nn[nH]n2)NC(=O)C(C)(C)C(=O)NO)[C@@H](C)O)[C@@H](C)O)C(=O)N[C@@H](CCCc2cc(C)cc(C)c2)C(N)=O)cc1 [P5] (X6-[Ala(1H-tetrazol-5-yl)]GT[αMePhe(2-F)]TSD[Bip(2'-Et,4'-O(CH2)4NH2)][Nva(5-(3,5-Me2Ph))]-NH2) ; its S/N: 1.3

Please find the next molecule below.
Form field, S/N with HEK293/CRE-Luc cells, item CCc1cc(OCCCCNC(=O)[C@H](CO)NC(=O)CNC(=O)CNC(=O)CNC(=O)CNC(=O)CCC(=O)N2Cc3ccccc3C#Cc3ccccc32)ccc1-c1ccc(C[C@H](NC(=O)[C@H](CC(=O)O)NC(=O)[C@H](CO)NC(=O)[C@@H](NC(=O)[C@](C)(Cc2ccccc2F)NC(=O)[C@@H](NC(=O)CNC(=O)[C@H](Cc2nn[nH]n2)NC(=O)C(C)(C)C(N)=O)[C@@H](C)O)[C@@H](C)O)C(=O)N[C@@H](CCCc2cc(C)cc(C)c2)C(N)=O)cc1 [LP14, DIBAC- suc-G4S- P4] : 1.3
